B1: RAB40B (parent)
chain: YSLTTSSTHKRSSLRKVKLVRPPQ

# Variants of: B1
# Experiment Notes: protein stability index of a GFP-peptide fusion (GPS, HEK-293T) (PSI 1-6); higher = more stable;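 note: lentivirally expressed fusions sorted by FACS into six bins by GFP to DsRed ratio, PSI derived from sequencing read proportions per bin multiplied by bin number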
# Condition Summary: c terminus: a fixed tail appended
Threshold rule: protein stability index greater than or equal to 3 is Yes; below that, No.

Illustrative cases are given below, each with its answer.
[
  {
    "Mutant Label": "L14Q",
    "Class Name": "Yes"
  },
  {
    "Mutant Label": "T8E",
    "Class Name": "Yes"
  },
  {
    "Mutant Label": "T4W",
    "Class Name": "No"
  },
  {
    "Mutant Label": "R15M",
    "Class Name": "No"
  },
  {
    "Mutant Label": "K18P",
    "Class Name": "Yes"
  },
  {
    "Mutant Label": "R11L",
    "Class Name": "No"
  },
  {
    "Mutant Label": "T8G",
    "Class Name": "Yes"
  },
  {
    "Mutant Label": "R15E",
    "Class Name": "Yes"
  },
  {
    "Mutant Label": "T5R",
    "Class Name": "Yes"
  },
  {
    "Mutant Label": "T5W",
    "Class Name": "No"
  }
]

Request: Hi team, for Y1H , is the recorded protein stability index at or above 3?
Result: Yes

Request: Determine whether measured protein stability index meets or exceeds 3 for H9E
Result: No
